Attribution: patent US10639284B2

This section presents compounds with their documented pIC50 values.
# measuredTarget: human PD-L1 / Human PD-1 (Homo sapiens (Human), UniProt Q9NZQ7)
# Sequence (Q9NZQ7 19-239): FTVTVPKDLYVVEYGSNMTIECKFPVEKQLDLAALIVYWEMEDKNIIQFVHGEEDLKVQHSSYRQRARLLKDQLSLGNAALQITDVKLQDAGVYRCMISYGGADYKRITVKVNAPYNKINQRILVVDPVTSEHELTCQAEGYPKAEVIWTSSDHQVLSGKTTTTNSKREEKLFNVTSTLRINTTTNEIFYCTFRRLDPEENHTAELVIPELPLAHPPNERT
# method: Enzyme-Linked Immunosorbent Assay (ELISA), PD-1/PD-L1 binding
# conditionDetails: Table 3; plate-coated human PD-L1, biotinylated human PD-1; read-out: ELISA IC50
pIC50: −log10 of the molar value.

Some entries whose results are on file:
smilesText: O=C(O)[C@H](CO)NCc1cc(Cl)c(O[C@H]2CCc3c(-c4ccc5c(c4F)OCCO5)cccc32)cc1OCc1cc(F)cc(Cl)c1
pIC50: 4.70 to 6.30

smilesText: N#Cc1cncc(COc2cc(O[C@H]3CCc4c(-c5cc6c(c(F)c5F)OCCO6)cccc43)c(Cl)cc2CN[C@@H](CO)C(=O)O)c1
pIC50: > 7.00

Let's switch to this compound now.
Task: What does the data say about its pIC50? Entry: N#Cc1cncc(COc2cc(O[C@H]3CCc4c(-c5ccccc5F)cccc43)c(Cl)cc2CN[C@H]2CCc3ccc(O)cc3C2)c1
Output: 6.30 to 7.00

* * *

# measuredTarget: human PD-L1 / Human PD-1 (Homo sapiens (Human))
# method: Enzyme-Linked Immunosorbent Assay (ELISA), PD-1/PD-L1 binding
# conditionDetails: Table 2; plate-coated human PD-L1, biotinylated human PD-1; read-out: ELISA IC50
pIC50: −log10 of the molar value.
experimentalEndpoint: pIC50

compound: N#Cc1cncc(COc2cc(O[C@H]3CCc4c(-c5ccccc5F)cccc43)c(Cl)cc2CNC(C(N)=O)C(N)=O)c1 [Example 2.170]
pIC50: 4.70 to 6.30

Task: Give human PD-L1 / Human PD-1 (Homo sapiens (Human)) pIC50 for CC(C)[C@H](NCc1cc(Cl)c(O[C@H]2CCc3c(-c4ccccc4F)cccc32)cc1OCc1cncc(C#N)c1)C(=O)O [Example 2.123]
Output: 6.30 to 7.00

Task: Short answer please: pIC50, human PD-L1 / Human PD-1 (Homo sapiens (Human)), entry COc1ncc(COc2cc(O[C@H]3CCc4c(-c5ccccc5F)cccc43)c(Cl)cc2CN2CCC(O)CC2)cn1 [Example 2.131]
Output: 6.30 to 7.00

Task: Value wanted: pIC50 (human PD-L1 / Human PD-1 (Homo sapiens (Human))) of entry N#Cc1cncc(-c2cc(O[C@H]3CCc4c(-c5ccccc5F)cccc43)c(Cl)cc2CN[C@@H](CO)C(=O)O)c1 [Example 2.115]
Output: > 7.00

Task: Given the entry N#Cc1cncc(COc2cc(O[C@H]3CCc4c(-c5ccccc5F)cccc43)c(Cl)cc2CN[C@@H](CC(N)=O)C(=O)O)c1 [Example 2.118] , what pIC50 was observed with human PD-L1 / Human PD-1 (Homo sapiens (Human))?
Output: > 7.00

Task: GET /values?readout=pIC50&system=human PD-L1 / Human PD-1 (Homo sapiens (Human))&item= N#Cc1cncc(COc2cc(O[C@H]3CCc4c(-c5ccccc5F)cccc43)c(Cl)cc2CNCc2nc(=O)o[nH]2)c1 [Example 2.150]
Output: 6.30 to 7.00

* * *

# measuredTarget: human PD-L1 / Human PD-1 (Homo sapiens (Human), UniProt Q9NZQ7)
# method: Enzyme-Linked Immunosorbent Assay (ELISA), PD-1/PD-L1 binding
# conditionDetails: Table 2; plate-coated human PD-L1, biotinylated human PD-1; read-out: ELISA IC50
experimentalEndpoint: IC50

molecule: COc1cc(O[C@H]2CCc3c(-c4cccc(OC)c4F)cccc32)c(Cl)cc1CN[C@@H](CO)C(=O)O [Example 2.040]
IC50: < 100 nM
//
molecule: N#Cc1cncc(COc2cc(O[C@H]3CCc4c(-c5ccccc5)cccc43)c(Cl)cc2CN2CC(O)C2)c1 [Example 2.001]
IC50: 100 to 500 nM
//
molecule: COc1cccc(-c2cccc3c2CC[C@@H]3Oc2cc(OCc3cncc(C#N)c3)c(CN3CC(O)C3)cc2Cl)c1F [Example 2.051]
IC50: < 100 nM

Task: Notebook entry, human PD-L1 / Human PD-1 (Homo sapiens (Human), UniProt Q9NZQ7) assay: IC50 of N#Cc1cncc(-c2cc(O[C@H]3CCc4c(-c5ccccc5F)cccc43)c(Cl)cc2CN2CCC(O)CC2)c1 [Example 2.112] = ?
Output: 500 to 20000 nM

* * *

# measuredTarget: human PD-L1 / Human PD-1 (Homo sapiens (Human))
# method: Enzyme-Linked Immunosorbent Assay (ELISA), PD-1/PD-L1 binding
# conditionDetails: Table 2; plate-coated human PD-L1, biotinylated human PD-1; read-out: ELISA IC50
pIC50: −log10 of the molar value.
experimentalEndpoint: pIC50

For orientation, consider the following solved cases.
compound: CCOc1cc(O[C@H]2CCc3c(-c4ccccc4F)cccc32)c(Cl)cc1CNC(C)(CO)C(=O)O (some centres unmarked)
result: 6.30 to 7.00

compound: N#Cc1cncc(COc2cc(O[C@H]3CCc4c(-c5ccc6c(c5)OCCO6)cccc43)c(Cl)cc2CN2CC(O)C2)c1
result: > 7.00

compound: N#Cc1cncc(COc2cc(O[C@H]3CCc4c(-c5ccccc5F)cccc43)c(Cl)cc2CN[C@@H]2[C@@H]3CC[C@@H](C3)[C@@H]2C(=O)O)c1
result: 4.70 to 6.30

compound: CC(C)c1ccccc1-c1cccc2c1CC[C@@H]2Oc1cc(OCc2cncc(C#N)c2)c(CN[C@@H](CO)C(=O)O)cc1Cl
result: 6.30 to 7.00

compound: CC(C)(O)CNCc1cc(Cl)c(O[C@H]2CCc3c(-c4ccccc4F)cccc32)cc1OCc1cncc(C#N)c1
result: 6.30 to 7.00

compound: CC(C)OC(=O)[C@H](CO)NCc1cc(Cl)c(O[C@H]2CCc3c(-c4ccccc4F)cccc32)cc1OCc1cncc(C#N)c1
result: 4.70 to 6.30

compound: Cc1cc(-c2cccc3c2CC[C@@H]3Oc2cc(OCc3cncc(C#N)c3)c(CN[C@@H](CO)C(=O)O)cc2Cl)ccc1N(C)C
result: 4.70 to 6.30

compound: CN(C)Cc1cc(Cl)c(O[C@H]2CCc3c(-c4ccccc4F)cccc32)cc1OCc1cncc(C#N)c1
result: > 7.00

compound: COc1cccc(-c2cccc3c2CC[C@@H]3Oc2cc(OCc3cncc(C#N)c3)c(CN3C[C@H](O)C[C@@H]3C(=O)O)cc2Cl)c1F
result: > 7.00

compound: Cc1ccc(-c2cccc3c2CC[C@@H]3Oc2cc(OCc3cncc(C#N)c3)c(CN[C@@H](CO)C(=O)O)cc2Cl)c(F)c1
result: 6.30 to 7.00

Task: # input compound: N#Cc1cncc(COc2cc(O[C@H]3CCc4c(-c5ccccc5)cccc43)c(Cl)cc2CNCC2CCC(=O)N2)c1 (some centres unmarked) ; wanted: its pIC50
Output: 6.30 to 7.00

Task: Need pIC50, item N#Cc1cncc(COc2cc(O[C@H]3CCc4c(-c5ccccc5F)cccc43)c(Cl)cc2CNC2(C(=O)O)CCC2)c1
Output: > 7.00

Task: Which measured pIC50 value corresponds to N#Cc1cncc(COc2cc(O[C@H]3CCc4c(-c5ccccc5F)cccc43)c(Cl)cc2CN2CCC(F)CC2)c1 ?
Output: 4.70 to 6.30

Task: // pIC50 lookup, key: N#Cc1cncc(COc2cc(O[C@H]3CCc4c(-c5ccccc5F)cccc43)c(Cl)cc2CN[C@@H](C(=O)O)c2ccc(O)cc2)c1
Output: 6.30 to 7.00

Task: Which pIC50 value is on record for C[C@@H](O)[C@H](NCc1cc(Cl)c(O[C@H]2CCc3c(-c4ccc5c(c4Cl)OCCO5)cccc32)cc1OCc1cncc(C#N)c1)C(=O)O ?
Output: > 7.00

Task: Field request: pIC50 | item: CCOc1cc(O[C@H]2CCc3c(-c4ccccc4F)cccc32)c(Cl)cc1CN[C@@H](C)C(=O)O [Example 2.154]
Output: 6.30 to 7.00

Task: Query (compound): C[C@H](NCc1cc(Cl)c(O[C@H]2CCc3c(-c4ccccc4F)cccc32)cc1OCc1cncc(C#N)c1)C(=O)O ; field requested: pIC50
Output: > 7.00

Task: I have this compound here, N#Cc1cncc(COc2cc(O[C@@H]3c4cccc(-c5ccccc5F)c4C[C@H]3F)c(Cl)cc2CN[C@@H](CO)C(=O)O)c1 , and I need its recorded pIC50.
Output: > 7.00

Task: Give its pIC50 value. Item: C[C@@H](O)[C@H](NCc1cc(Cl)c(O[C@H]2CCc3c(-c4ccccc4F)cccc32)cc1OCc1cccnn1)C(=O)O
Output: 6.30 to 7.00

Task: Give its pIC50 value. Item: CCOc1cc(O[C@H]2CCc3c(-c4ccc5c(c4F)OCCO5)cccc32)c(Cl)cc1CN[C@@H](CO)C(=O)O
Output: > 7.00

* * *

Recorded measurements of IC50, one per entry
# measuredTarget: human PD-L1 / Human PD-1 (Homo sapiens (Human), UniProt Q9NZQ7)
# method: Enzyme-Linked Immunosorbent Assay (ELISA), PD-1/PD-L1 binding
# conditionDetails: Table 2; plate-coated human PD-L1, biotinylated human PD-1; read-out: ELISA IC50

Previously resolved entries follow.
compound: O=C(O)[C@H](CO)NCc1cc(Cl)c(O[C@H]2CCc3c(-c4ccccc4F)cccc32)cc1OCc1cnc(Cl)nc1
IC50: < 100 nM
//
compound: CN(C)c1cccc(-c2cccc3c2CC[C@@H]3Oc2cc(OCc3cncc(C#N)c3)c(CN[C@@H](CO)C(=O)O)cc2Cl)c1
IC50: 500 to 20000 nM

Task: # value lookup — system human PD-L1 / Human PD-1 (Homo sapiens (Human), UniProt Q9NZQ7), readout IC50, item COc1cccc(-c2cccc3c2CCC3Oc2cc(OCc3cncc(C#N)c3)c(CNCCC(N)=O)cc2Cl)c1F (stereo not shown)
Output: 100 to 500 nM

Task: Form field - read-out: IC50; system: human PD-L1 / Human PD-1 (Homo sapiens (Human), UniProt Q9NZQ7); submitted item: CCc1ccccc1-c1cccc2c1CC[C@@H]2Oc1cc(OCc2cncc(C#N)c2)c(CN[C@@H](CO)C(=O)O)cc1Cl
Output: 100 to 500 nM

Task: Form entry - test system: human PD-L1 / Human PD-1 (Homo sapiens (Human), UniProt Q9NZQ7); read-out: IC50; compound: N#Cc1cncc(COc2cc(O[C@H]3CCc4c(-c5ccccc5F)cccc43)c(Cl)cc2CN2CC3(CC(O)C3)C2)c1
Output: 100 to 500 nM

Task: Hello, I am looking for reported IC50 with human PD-L1 / Human PD-1 (Homo sapiens (Human), UniProt Q9NZQ7) for COc1cccc(-c2cccc3c2CC[C@@H]3Oc2cc(OCc3cncc(C#N)c3)c(CN[C@@H](CO)C(=O)O)cc2Cl)c1Cl . Could you help?
Output: < 100 nM

Task: Tell me reported IC50 for COc1ccc(F)c(-c2cccc3c2CC[C@@H]3Oc2cc(OCc3cncc(C#N)c3)c(CN[C@@H](CO)C(=O)O)cc2Cl)c1 , tested with human PD-L1 / Human PD-1 (Homo sapiens (Human), UniProt Q9NZQ7).
Output: < 100 nM

Task: Give recorded IC50 with human PD-L1 / Human PD-1 (Homo sapiens (Human), UniProt Q9NZQ7) for the following compound: CC(C)C[C@H](NCc1cc(Cl)c(O[C@H]2CCc3c(-c4ccccc4F)cccc32)cc1OCc1cncc(C#N)c1)C(=O)O [Example 2.091]
Output: 100 to 500 nM

Task: What value of IC50 on human PD-L1 / Human PD-1 (Homo sapiens (Human), UniProt Q9NZQ7) does COc1cccc(-c2cccc3c2CCC3CCOc2cc(OCc3cncc(C#N)c3)c(CN3CCC(O)CC3)cc2Cl)c1F (stereo not shown) [Example 2.086] have?
Output: 500 to 20000 nM

Task: Param readout = IC50; param system = human PD-L1 / Human PD-1 (Homo sapiens (Human), UniProt Q9NZQ7); param query = CC(C)(O)CNCc1cc(Cl)c(O[C@H]2CCc3c(-c4ccccc4)cccc32)cc1OCc1cncc(C#N)c1 ; response: value
Output: 500 to 20000 nM

Task: Notebook: pull reported IC50 for human PD-L1 / Human PD-1 (Homo sapiens (Human), UniProt Q9NZQ7), entry COc1cccc(-c2cccc3c2CC[C@@H]3Oc2cc(OCc3cncc(C#N)c3)c(CN[C@@H](CO)C(=O)O)cc2Cl)c1F
Output: < 100 nM

Task: # value lookup — system human PD-L1 / Human PD-1 (Homo sapiens (Human), UniProt Q9NZQ7), readout IC50, item N#Cc1cncc(COc2cc(O[C@H]3CCc4c(-c5ccccc5)cccc43)c(Cl)cc2CNCCn2nn[nH]c2=O)c1
Output: 100 to 500 nM

Task: Fill in the recorded IC50 for this compound, with human PD-L1 / Human PD-1 (Homo sapiens (Human), UniProt Q9NZQ7) as test system: CCOc1cc(O[C@H]2CCc3c(-c4ccccc4F)cccc32)c(Cl)cc1CN[C@H](C(=O)O)[C@@H](C)O [Example 2.158]
Output: 100 to 500 nM
